System: TK-10 renal
Procedure Details: NCI tumour cell line growth inhibition, 48 h
Exercise: for every item that follows, state its recorded TGI.

>  <Compound>
CN1C(=O)C(O)C[C@@H]1c1ccccc1 (stereo partly specified)

>  <Assay Value>
> 100 µM

$$$$
>  <Compound>
Cc1nc(N)c(N2CCN(CN)CC2)c(=O)[nH]1

>  <Assay Value>
> 100 µM

$$$$
>  <Compound>
CC(C)CCCC(C)[C@H]1CCC2[C@@H]3CCC4Nc5c(cnn5-c5ccccc5)C[C@]4(C)C3CC[C@@]21C (stereo partly specified)

>  <Assay Value>
> 100 µM

$$$$

Look at each compound and report its TGI.
1. O=C(NCCc1ccccn1)OCc1nc2nc(Cl)nc(N3CCOCC3)c2[nH]1
2. CC(C)OP(=O)(OC(C)C)/C(N)=N/Nc1ccc([N+](=O)[O-])cc1
3. COC(=O)C1C(=O)N(C)C(=O)N2CCCC12 (stereo unspecified)

A:
1: 4 µM; 2: > 100 µM; 3: > 100 µM

Go through the list and state TGI for each entry.
1. NNC(=O)C(=O)N/N=C1\CCC(=O)CC1C(=O)CCC(=O)Nc1ccc(Cl)cc1 (stereo unspecified)
2. COC[C@@H](N=Cc1ccc([N+](=O)[O-])cc1)C(C)C
3. COc1cccc(N=N/C(=N\NC(=O)c2ccc(C)cc2)c2ccc(N(CCC#N)CCC#N)cc2C)c1
4. NN=C(CC(O)(C(F)(F)Cl)C(F)(F)Cl)CC(O)(C(F)(F)Cl)C(F)(F)Cl
5. COc1ccc(C(SC2C(O)C(CO)OC2n2ccc(=O)[nH]c2=O)(c2ccccc2)c2ccc(OC)cc2)cc1 (stereo unspecified)
6. COc1ccc(C(=O)NNc2nc(Cl)nc(N3CCN(C(c4ccccc4)c4ccccc4)CC3)n2)cc1
7. COc1cc(C)c(C2NC(=O)c3ccccc3N2)cc1C (stereo unspecified)

A:
1. > 100 µM
2. > 100 µM
3. > 100 µM
4. > 10 µM
5. 57 µM
6. > 100 µM
7. > 100 µM

###

System: ACHN renal
Procedure Details: NCI tumour cell line growth inhibition, 48 h
Field: GI50. Provide a value for each of the compounds that follow.

I would be grateful if you could provide GI50 for each of the following entries.
1. O=c1[nH]c2nc(NC3CCOCC3)ncc2cc1Oc1ccc(F)cc1F
2. c1ccc2c(-c3nc(-c4c[nH]c5ccncc45)cs3)c[nH]c2c1

A:
["> 25 µM", "1.72 µM"]

For every item in the list below, what is its measured GI50?
1. COc1ccc(-c2nc(-c3nc4ccc(F)cc4[nH]3)c3ccccn23)cc1
2. O=C(NCCc1ccccn1)OCc1nc2nc(Cl)nc(N3CCOCC3)c2[nH]1
3. Cc1c2cc(Cl)c3ccccc3c2c[n+]2ccccc12
4. COc1cc(NC(=O)CCSc2nc3ccc(C)cc3c(=O)n2Cc2ccccc2)cc(OC)c1OC

A:
1: 4.28 µM; 2: 1.29 µM; 3: 22 µM; 4: 3.72 µM

###

For each of the compounds below, state its log10(TGI).
System: SK-MEL-5 melanoma
Procedure Details: NCI tumour cell line growth inhibition, 48 h
// units: µM (pre-log); metric: TGI; scale: log10

>  <Compound>
Nc1ccc(S(=O)(=O)Nc2nc3ccccc3nc2N2CCCCCC2)cc1

>  <Observable>
log10(TGI)

>  <Assay Value>
1.48

$$$$
>  <Compound>
C=C1C(=O)OC2CC(C)C3CC(O)OC(OCC)C3(C)CC12 (stereo not drawn)

>  <Observable>
log10(TGI)

>  <Assay Value>
1.50

$$$$
>  <Compound>
Cc1nc2c(n1C)C(=O)c1ccccc1C2=O

>  <Observable>
log10(TGI)

>  <Assay Value>
1.93

$$$$
>  <Compound>
C=CCOn1c(C=C)nc2ccc(C)cc21

>  <Observable>
log10(TGI)

>  <Assay Value>
1.50

$$$$
>  <Compound>
O=C(Nc1ccc(-c2nc(-c3cccc(OCCN4CCOCC4)c3)c(-c3ccnc(Br)c3)[nH]2)cc1)c1ccccc1

>  <Observable>
log10(TGI)

>  <Assay Value>
0.51

$$$$

Report log10(TGI) for every entry below.
1. Cc1c2c(c(C)c3c4c(oc13)CCCC4)C=NCC2
2. Cc1cc(O)c(C2=NN(c3ccc(S(N)(=O)=O)cc3)C(c3ccc(Cl)cc3)C2)c(C)c1Cl (stereo not drawn)
3. COC(=O)C1=C(C(=O)OC)C2(C)C=CC1O2 (stereo not drawn)
4. Cc1cc(=O)[nH]c(NN2C(Cl)C(=O)C2c2ccc([N+](=O)[O-])cc2)n1 (stereo not drawn)
5. COc1cnc2c(c1)C(=O)c1c-2n(CCCNCCO)c(=O)c2ccncc12

A:
1: 1.49; 2: 1.33; 3: 1.52; 4: 1.44; 5: 0.53

Q: I would be grateful if you could share the reported log10(TGI) for `Cc1nc(Nc2ccccn2)sc1C(=O)/C=C/c1ccc(Cl)cc1` .
A: 0.16

###

Kindly supply the reported TGI values for the records listed here.
System: U251 CNS
Procedure Details: NCI tumour cell line growth inhibition, 48 h

Sample answers from the record:
>  <Compound>
O=c1[nH]c2nc(NC3CCOCC3)ncc2cc1Oc1ccc(F)cc1F

>  <TGI>
> 25 µM

$$$$
>  <Compound>
Cc1ccc(S(=O)CC(CF)OCn2cc(C)c(=O)[nH]c2=O)cc1 (stereo not drawn)

>  <TGI>
> 100 µM

$$$$
>  <Compound>
CC(C)CCCC(C)[C@H]1CCC2[C@@H]3CCC4Nc5c(cnn5-c5ccccc5)C[C@]4(C)C3CC[C@@]21C (stereo partly drawn)

>  <TGI>
> 100 µM

$$$$
>  <Compound>
N/N=C1\C(=O)N(c2ccc(Cl)cc2Cl)C(=O)C(=O)C1c1nc2ccccc2o1 (stereo not drawn)

>  <TGI>
> 100 µM

$$$$
>  <Compound>
O=c1cc(N/N=C/c2ccc(F)cc2)c2cc(Cl)ccc2[nH]1

>  <TGI>
98.4 µM

$$$$
>  <Compound>
COc1ccc(OC)c(SC(CC(=O)c2ccccc2)c2ccccc2)c1 (stereo not drawn)

>  <TGI>
31 µM

$$$$
>  <Compound>
O=C(O)CCNCCCCNCCC(=O)O

>  <TGI>
> 100 µM

$$$$
>  <Compound>
C=C1C(=O)OC2CC(C)C3CC(O)OC(OCC)C3(C)CC12 (stereo not drawn)

>  <TGI>
33.8 µM

$$$$

Dear colleague, could you please provide TGI for the compounds listed below?
1. Nc1ccc(S(=O)(=O)Nc2nc3ccccc3nc2N2CCCCCC2)cc1
2. Cc1nn2c(/C=C3/C(=O)Nc4cc(Cl)ccc43)c(-c3ccccc3)nc2s1
3. C=C1CCC2(C#N)[C@H]3[C@H](CC[C@@H]2C)[C@@H](C)C[C@@H](CC(C)(C)NC(=O)CN2CCC2=O)[C@H]13 (stereo partly drawn)
4. O=C(Nc1ccccc1C(=O)NCc1ccccc1)/C(=C/c1ccccc1)NC(=O)c1ccccc1
5. Cc1nn(-c2ccccc2)c(C)c1/C=N/N=C1\S/C(=C\c2ccc(Cl)cc2)C(=O)N1c1ccccc1
6. COC(=O)C1C(=O)N(C)C(=O)N2CCCC12 (stereo not drawn)

A:
46.4 µM
8.5 µM
16.6 µM
> 100 µM
> 100 µM
> 100 µM

For every record below, what is its TGI?
1. O=C(c1ccccc1)c1c(NCC(O)CN2CCOCC2)n(Cc2ccccc2)c(=O)n(Cc2ccccc2)c1=O (stereo not drawn)
2. COc1ccc(-c2oc3cc(O)cc(O)c3c(=O)c2OC)cc1
3. O=C(O)COc1cc(-c2ccccc2)nc2cc(F)ccc12

A:
["> 100 µM", "52.1 µM", "> 100 µM"]

Could I get TGI for every one of these entries?
1. Cc1ccc(S(=O)(=O)Nn2c(O)c(C#N)c(-c3ccc(Cl)cc3)c(C#N)c2=O)cc1
2. CC(C)/C(Cl)=N\OC(NC(=O)P(=O)(c1ccccc1)c1ccccc1)(C(F)(F)F)C(F)(F)F
3. CC(C)(C)OC(=O)NCC(CNC(=O)OC(C)(C)C)c1nc(C(N)=O)cs1

A:
["> 100 µM", "12 µM", "> 100 µM"]

Batch: TGI for all items listed.
1. COC(=O)COc1ccc(/C=C2/N=C(c3ccccc3)N(c3c(C)n(C)n(-c4ccccc4)c3=O)C2=O)cc1
2. CCN(CC)C(=S)SS(=O)(=O)c1cccc(N)c1
3. Cc1ccc(S(=O)(=O)c2nc(-c3ccccc3)oc2S(C)=O)cc1 (stereo not drawn)
4. COc1cc(C2c3cc4c(cc3C3OC[C@@H]2C3CO)OCO4)cc(OC)c1OC (stereo partly drawn)
5. Cc1cc(N=C2C=C(Br)C(=O)C(Br)=C2)cc(CN(CC(=O)O)CC(=O)O)c1O

A:
["> 100 µM", "> 100 µM", "3.17 µM", "> 100 µM", "> 100 µM"]
